Below: a set of entries, each annotated with reported solubility (mole fraction).
CONDITION DESCRIPTION: in water, 285.15 K

O=C(O)c1ccc([N+](=O)[O-])cc1C(=O)O = 0.087

Could you now consider this next molecule?
-- ask Check the records and state solubility (mole fraction) for O=C(O)c1cccc([N+](=O)[O-])c1C(=O)O
-- reply 0.000774

----------
Below: a set of entries, each annotated with reported solubility (mole fraction).
CONDITION DESCRIPTION: in water, 348.15 K
Kindly provide the number alone.

O=C(O)c1cccc([N+](=O)[O-])c1C(=O)O = 0.00955

-- ask Check the records and state solubility (mole fraction) for O=C(O)c1ccc([N+](=O)[O-])cc1C(=O)O
-- reply 0.222
